src = PubChem BioAssay AID2286

- protocol: MAGI-CCR5 and HeLa-R5-16 cytotoxicity, dose response, cytotoxicity control for HIV-1 fusion inhibitor project, cell-based, MAGI and MAGI-HeLa co-culture (AID 2286);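 further: cells exposed to compound for at least 64 h before ATP readout; 100% = median of DMSO vehicle wells with no ATP signal meaning 0%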
- measurement.parameters: MAGI-CCR5 cells viability, CellTiter-Glo ATP luminescence; at 50 µM (top of the series)
Overview of recorded viability for various compounds
Please respond with the number in % and leave the unit unwritten.

- compound: "Cc1c(Cl)cccc1NS(=O)(=O)c1ccc2c(c1)C1C=CCC1C(c1ccc(C(=O)O)cc1)N2 (stereo not drawn)"
  value.unit: "%"
  viability: 91
- compound: "CCOc1cc(/C=N/N=C2/NC(=O)C(CC(=O)O)S2)ccc1OCc1ccc(Cl)cc1 (stereo not drawn)"
  value.unit: "%"
  viability: 101
- compound: "O=C(O)c1cc(N2N=C(C(F)(F)F)/C(=C/C=C/c3ccco3)C2=O)ccc1Cl"
  value.unit: "%"
  viability: 92.8
- compound: "CC(C)S(=O)(=O)C1=NSC2=NC(=O)/C(=C\\c3ccc(OC(=O)c4ccco4)cc3)C(=N)N21"
  value.unit: "%"
  viability: 103
- compound: "COc1cc(/C=C2/C(=O)NN(c3ccc(Cl)cc3)C2=O)ccc1OC(=O)c1ccco1"
  value.unit: "%"
  viability: 96.4

Q) Fill blank: measured viability of the compound O=C(O)c1cccc(N/N=C/c2cc(Br)cc(Br)c2O)c1 is ____.
A) 127

Q) Fill blank: measured viability of the compound COc1cc(/C=C2\C(=N)N3N=C(S(C)(=O)=O)SC3=NC2=O)cc(OC)c1OCCOc1ccccc1C is ____.
A) 106

Q) Fill blank: measured viability of the compound O=C(O)C1Nc2ccc(Br)cc2C2C=CCC12 (stereo not drawn) is ____.
A) 98

Q) Fill blank: measured viability of the compound CCCCCCc1c(C)c2ccc(OCC(=O)N[C@@H](Cc3ccccc3)C(=O)O)cc2oc1=O is ____.
A) 96.7

Q) Fill blank: measured viability of the compound COc1cc(/C=C2/C(=O)NN(c3ccc(C)c(Cl)c3)C2=O)cc([N+](=O)[O-])c1O is ____.
A) 107

Q) Fill blank: measured viability of the compound O=C(COc1ccc(Cl)cc1)Nc1cc(NC(=O)COc2ccc(Cl)cc2)cc(C(=O)O)c1 is ____.
A) 105

Q) Fill blank: measured viability of the compound CC(C)(C)OC(=O)N1CCC(c2cc(=O)n3[nH]cc(C(=O)Nc4ccc(F)c(Cl)c4)c3n2)CC1 is ____.
A) 97.5

Q) Fill blank: measured viability of the compound CCCOc1ccc(C(=O)NNC(=S)NC(=O)c2cc(-c3ccccc3)nc3ccccc23)cc1 is ____.
A) 105

Q) Fill blank: measured viability of the compound CCOc1ccc2nc(NC(=O)CSc3nc(-c4ccccc4)c(C#N)c(=O)[nH]3)sc2c1 is ____.
A) 105

Q) Fill blank: measured viability of the compound N=C1/C(=C\c2ccc(-c3cccc(C(=O)O)c3)o2)C(=O)N=C2SC=C(c3ccccc3)N12 is ____.
A) 81

Q) Fill blank: measured viability of the compound CC1=C(C(=O)Nc2ccccc2)C(c2ccc(Cl)cc2)n2c(s/c(=C/c3cccc(OCC(=O)O)c3)c2=O)=N1 (stereo not drawn) is ____.
A) 114

Q) Fill blank: measured viability of the compound COc1cc(C(c2c(C(=O)O)[nH]c3ccccc23)c2c(C(=O)O)[nH]c3ccccc23)ccc1OCc1ccccc1 is ____.
A) 85.8

Q) Fill blank: measured viability of the compound O=C(O)c1[nH]c2ccccc2c1C(c1cc(Cl)cc([N+](=O)[O-])c1O)c1c(C(=O)O)[nH]c2ccccc12 is ____.
A) 99.1
